# assayed.target: Bac-F
# assay.details: BIAcore, mAb vs Bac-F (1:1)
quantity: pKd
Please treat pKd as minus the base-10 logarithm of the molar concentration.

INSERT INTO results (binder, quantity, numeric_readout) VALUES
  ('P11d4 (monoclonal antibody) (antibody, V domains shown) VH: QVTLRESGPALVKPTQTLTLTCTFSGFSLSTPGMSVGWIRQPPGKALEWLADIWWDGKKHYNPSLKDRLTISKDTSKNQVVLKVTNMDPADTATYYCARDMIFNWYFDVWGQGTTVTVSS VL: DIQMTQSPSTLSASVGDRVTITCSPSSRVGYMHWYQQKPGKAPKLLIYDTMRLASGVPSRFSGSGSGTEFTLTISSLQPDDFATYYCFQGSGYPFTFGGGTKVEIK', 'pKd', 9.21),
  ('P12f4 (monoclonal antibody) (antibody, V domains shown) VH: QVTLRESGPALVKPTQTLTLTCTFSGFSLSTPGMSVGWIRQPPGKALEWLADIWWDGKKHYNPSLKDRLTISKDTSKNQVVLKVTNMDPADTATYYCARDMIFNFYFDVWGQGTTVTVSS VL: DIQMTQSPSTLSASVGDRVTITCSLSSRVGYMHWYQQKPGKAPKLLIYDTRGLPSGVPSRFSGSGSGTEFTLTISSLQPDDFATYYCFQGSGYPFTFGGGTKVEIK', 'pKd', 9.96),
  ('P12f2 (monoclonal antibody) (antibody, V domains shown) VH: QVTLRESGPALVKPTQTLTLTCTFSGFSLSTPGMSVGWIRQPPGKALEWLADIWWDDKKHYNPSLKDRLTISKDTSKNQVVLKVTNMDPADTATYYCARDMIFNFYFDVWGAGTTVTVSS VL: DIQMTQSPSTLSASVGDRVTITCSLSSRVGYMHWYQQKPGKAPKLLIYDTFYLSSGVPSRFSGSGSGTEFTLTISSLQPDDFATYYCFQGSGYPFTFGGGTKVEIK', 'pKd', 9.51);

Lab note: next binder to report on.
Check the records and state pKd for A13c4 (monoclonal antibody) (antibody, V domains shown) VH: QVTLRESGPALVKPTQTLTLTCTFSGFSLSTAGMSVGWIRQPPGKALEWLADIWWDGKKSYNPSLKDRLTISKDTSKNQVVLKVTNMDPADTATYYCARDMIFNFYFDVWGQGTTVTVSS VL: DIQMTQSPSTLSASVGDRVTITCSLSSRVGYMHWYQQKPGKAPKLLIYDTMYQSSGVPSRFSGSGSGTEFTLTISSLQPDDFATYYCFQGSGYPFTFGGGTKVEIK 9.89

// provenance: patent US20030091584A1
